Details: in n-propanol, 323.15 K
Experimental Endpoint: solubility (mole fraction)

Notebook: "CC(C)Oc1ccc2c(=O)c(-c3ccccc3)coc2c1" , solubility (mole fraction) read as 0.0147

* * *

Settings: in dichloromethane, 278.15 K
Experimental Endpoint: solubility (mole fraction)
Form rule: numeric answer, no unit written next to it.

Looking up "CC(C)Oc1ccc2c(=O)c(-c3ccccc3)coc2c1" , I see its solubility (mole fraction) listed as 0.0667

* * *

Settings: in methanol, 298.15 K
Experimental Endpoint: solubility (mole fraction)
Respond numerically, and do not add a unit to the figure.

So for "CC(C)Oc1ccc2c(=O)c(-c3ccccc3)coc2c1" , the logged solubility (mole fraction) turned out to be 0.00244
